target: TGF-beta1 (hTGF-beta1) (Homo sapiens, UniProt P01137 P01137:279-390); experiment: filter; monophasic, plateau about 10%; Table 3 and Table 4 sequences differ slightly; conditions: tags: R&D Systems; biotinylated form (NFTG0) used for BIAcore; chain copies: 2
Sequence (P01137 279-390, one chain of several): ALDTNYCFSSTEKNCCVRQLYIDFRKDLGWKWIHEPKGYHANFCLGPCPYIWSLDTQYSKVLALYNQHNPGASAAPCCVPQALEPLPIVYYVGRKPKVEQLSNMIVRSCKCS
pKd: −log10 of the molar value.
QUANTITY: pKd

BINDER	VALUE MEASURED
20-05 (ssRNA, 2'-F C and U) RNA: GGGAGGACGAUGCGGUGUCUCUACCUUAGGUUGAUUCCUUCUACCGCAGACGACUCGCCCGA	9.96
